# Measured on: Gal(b1-4)GlcNAc(b1-6)[Gal(b1-4)GlcNAc(b1-3)]GalNAc
# Run description: glycan array binding signal (z-score within array); higher = stronger binding
# Study conditions: glycan notation: IUPAC condensed, linker removed
The sample as a whole holds a higher share of the strongest signals than the screen did.
Property label: glycan array binding signal (z-score)

Take a look at these entries with their results.
binder="EUL D1A second (Oryza sativa) (protein) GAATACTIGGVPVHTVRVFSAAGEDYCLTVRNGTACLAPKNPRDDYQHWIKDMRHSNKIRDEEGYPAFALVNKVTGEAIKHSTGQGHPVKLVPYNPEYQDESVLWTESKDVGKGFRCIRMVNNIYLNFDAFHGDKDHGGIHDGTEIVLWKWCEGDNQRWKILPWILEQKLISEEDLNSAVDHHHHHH" property_label="glycan array binding signal (z-score)" value_reported=-0.385
binder="DC-ASGPR L+GEE (Homo sapiens) (protein) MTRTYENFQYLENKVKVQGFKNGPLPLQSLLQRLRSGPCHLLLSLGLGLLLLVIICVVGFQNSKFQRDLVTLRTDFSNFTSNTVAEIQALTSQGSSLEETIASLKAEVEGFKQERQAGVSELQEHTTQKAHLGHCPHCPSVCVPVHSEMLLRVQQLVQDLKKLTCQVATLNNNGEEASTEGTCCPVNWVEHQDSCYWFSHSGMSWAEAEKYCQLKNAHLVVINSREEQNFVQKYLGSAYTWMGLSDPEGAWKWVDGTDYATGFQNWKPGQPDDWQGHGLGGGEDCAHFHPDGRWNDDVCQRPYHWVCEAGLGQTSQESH" property_label="glycan array binding signal (z-score)" value_reported=-0.432

Now for a further binder.
Q: Consider the binder shown here: Gal 1 (Mus musculus), P16045 (protein) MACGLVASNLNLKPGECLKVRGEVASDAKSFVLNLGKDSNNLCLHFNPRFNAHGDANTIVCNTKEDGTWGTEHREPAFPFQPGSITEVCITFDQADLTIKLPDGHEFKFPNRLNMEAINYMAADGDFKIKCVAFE What is its recorded glycan array binding signal (z-score)?
Result: -0.011
